target: CathepsinG, from human neutrophils (Homo sapiens, UniProt P08311); test: Enzymatic assay, cathepsin G; details: Cathepsin G IC50
Sequence (P08311 21-244): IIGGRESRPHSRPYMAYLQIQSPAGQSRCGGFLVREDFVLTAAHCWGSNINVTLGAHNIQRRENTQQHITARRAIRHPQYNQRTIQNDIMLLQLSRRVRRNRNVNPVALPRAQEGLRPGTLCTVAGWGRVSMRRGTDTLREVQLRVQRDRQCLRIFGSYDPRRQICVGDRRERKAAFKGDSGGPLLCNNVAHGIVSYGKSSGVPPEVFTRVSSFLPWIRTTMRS
Where a SMILES comes first, the peptide text is derived from it.
assay_readout: IC50 (nM)
One number for each entry, in nM.

## Input Give its IC50 value. Item: CC[C@H](C)[C@@H]1NC(=O)[C@@H]2CCCN2C(=O)[C@@H]2CCCN2C(=O)[C@H](CC(=O)O)NC(=O)[C@H](CO)NC(=O)[C@H](CCCCN)NC(=O)[C@H]([C@@H](C)O)NC(=O)[C@@H]2CSSC[C@H](NC1=O)C(=O)N[C@@H](CO)C(=O)N1CCC[C@@H]1C(=O)N1CCC[C@H]1C(=O)N[C@@H](Cc1c[nH]c3ccccc13)C(=O)N2 [Ex. 61] (HELM PEPTIDE1{W.C.T.K.S.D.P.P.I.C.S.[dP].P}$PEPTIDE1,PEPTIDE1,2:R3-10:R3|PEPTIDE1,PEPTIDE1,1:R1-13:R2$$$V2.0)
## Output 72
